Measured values drawn from patent US20260108607A1 for this set.

- assay.system: T1, EGFRvIII target antigen (SPR ligand) (UniProt P00533 25-645, limits assumed)
- T1 construct: also called EGFRvIII antigen
- test.details: SPR; antibody as analyte
So I've got a bunch of binders here, and I need their pKd values.
Give bare numbers, as −log10 of the molar value.

binder	endpoint.result
humanized antibody 28-H9 (84C3G8H7-VH4 + VL1(PTM)) (scFv, the format in the SPR assay is not clearly stated) scFv: QVQLVQSGAEVKKPGASVKVSCKASGFNIKDYYMHWVKQAPGQRLEWIGWIDPENGNTIYDPKFQGRATITADTSANTAYMELSSLRSEDTAVYYCARGWFAYWGQGTLVTVSSGGGGSGGGGSGGGGSGGGGSDIVMTQSPDSLAVSLGERATINCKSSQSLLNSSNQKNHLAWYQQKPGQPPKLLIYFASTRGSGVPDRFSGSGSGTDFTLTISSLQAEDVAVYYCQQHYSTPLTFGGGTKLELK	7.32
humanized antibody 28-H8 (84C3G8H7-VH3 + VL2(PTM)) (scFv, the format in the SPR assay is not clearly stated) scFv: QVQLVQSGAEVKKPGASVKVSCKASGFNIKDYYMHWVRQAPGQRLEWIGWIDPENGNTIYDPKFQGRATITADTSASTAYMELSSLRSEDTAVYYCARGWFAYWGQGTLVTVSSGGGGSGGGGSGGGGSGGGGSDIVMTQSPDSLAVSLGERATINCKSSQSLLNSSNQKNHLAWYQQKPGQPPKLLVYFASTRGSGVPDRFSGSGSGTDFTLTISSLQAEDVAVYFCQQHYSTPLTFGGGTKLELK	7.14

## Task Can you look up the measured pKd of humanized antibody 28-H3 (84C3G8H7-VH3 + VL1) (scFv, the format in the SPR assay is not clearly stated) scFv: QVQLVQSGAEVKKPGASVKVSCKASGFNIKDYYMHWVRQAPGQRLEWIGWIDPENGNTIYDPKFQGRATITADTSASTAYMELSSLRSEDTAVYYCARGWFAYWGQGTLVTVSSGGGGSGGGGSGGGGSGGGGSDIVMTQSPDSLAVSLGERATINCKSSQSLLNSSNQKNHLAWYQQKPGQPPKLLIYFASTRASGVPDRFSGSGSGTDFTLTISSLQAEDVAVYYCQQHYSTPLTFGGGTKLELK for me?
## Result 6.78
